MEASURE: melting point

Example entries begin here.
>>> df
                                   compound  observed_result
0  O=C(c1ccccc1)c1c[nH]c2ncnc(Nc3cccc(CO)c3)c12    273 to 275 °C
1  CCOC(=O)C(F)=C(C)NC(=O)Nc1cc(C(=O)OC(C)C)c(Cl)cc1F    150 to 152 °C
2  O=C1CCC(N2Cc3c(OCc4ccc(CN5CCSCC5)cc4)cccc3C2=O)C(=O)N1 (stereo not given)    134 to 136 °C
3              O=C(NCCO)c1ccc(-c2ccccn2)cc1      86 to 88 °C
4  COc1ccc(Oc2ccc3nc(COc4ccc(CC5SC(=O)NC5=O)cc4)n(C)c3c2)cc1 (stereo not given)    122 to 126 °C
5                CC(C)OC(=O)Nc1cc(C2CC2)on1  64.5 to 65.5 °C

Output melting point of Cc1c(Nc2ccc(Br)cc2C(=O)O)cccc1C(F)(F)F
223 to 225 °C

Output melting point of COc1c(OS(=O)(=O)c2ccc(C)cc2)cc2c(c1OC)C1=C(CCC1)C(N1C(=O)c3ccccc3C1=O)CC2 (stereo not given)
139 °C

Output melting point of Nc1ccc(OC2=CC=CN(Oc3ccc(N)cc3)C2)cc1
152 to 154 °C

Output melting point of Cc1oc(-c2ccccc2)nc1CCc1ccc(CCCC2OC(=O)NC2=O)cc1 (stereo not given)
112 to 113 °C

====

# Lookup of reported melting point keyed by entry

Example entries begin here.
                                   molecule        measure  observed_result
0            Nc1nnc(-c2ccc(CN3CCCCCC3)s2)o1  melting point    232 to 234 °C
1  CC(C)(c1ccc(-c2nc(Nc3ccc(F)cc3)ncc2C#N)cc1)N1CCCC1  melting point           124 °C
2           CN1Cc2ccc(Cl)c3scc(c23)S1(=O)=O  melting point           146 °C
3  N#Cc1c(Cl)n(C2OC(CF)C(O)C2O)c2cc(Cl)c(Cl)cc12 (stereo unspecified)  melting point    246 to 247 °C
4  CC(C)Nc1nc2c(Br)c(Cl)c(Cl)cc2n1[C@H]1O[C@@H](CO)[C@H](O)[C@@H]1O  melting point    221 to 222 °C
5  O=C(O)C1=CC(CF)(CF)Oc2ccc(C(F)(F)C(F)(F)C(F)(F)F)cc21  melting point    162 to 163 °C
6  CC(C)(C)c1cc(NC(=O)Nc2csc(-c3cccnc3)n2)no1  melting point    230 to 232 °C
7        O=C1c2ccc(O)cc2OCN1CCO[N+](=O)[O-]  melting point    131 to 133 °C

Output melting point of CCCCNc1nc(C)nc2c1nnn2-c1ccc(C(C)C)cc1Br
149 to 151 °C

Output melting point of CCCCCCc1ccnc(-c2ccc(C(N)=O)cc2)n1
232 to 233 °C

Output melting point of N#CC(=NNc1c(Cl)cc(C(F)(F)F)cc1Cl)c1ccc(Cl)cc1
164 to 165 °C

Output melting point of CC(C)C(=O)O[C@@H]1C[C@H](C(=O)Nc2ccc(N3CCOCC3=O)cc2)N(C(=O)Nc2ccc(Cl)cc2)C1
129 °C

Output melting point of Cc1nnc(N2N=C(c3ccc([N+](=O)[O-])cc3)c3cc4c(cc3C[C@H]2C)OCO4)o1
202 to 204 °C

Output melting point of CCCC(=O)N(C)c1cccc(-c2ccc3nnc(C)n3n2)c1
140 to 143 °C

Output melting point of Clc1ccc(C2=CCN(CCCCn3cncn3)CC2)cc1
101 to 103 °C

Output melting point of COc1cc2c(cc1OC)CN(CC(O)c1ccc(NC(=O)c3cccc4c(=O)c5cccc(OC)c5[nH]c34)cc1)CC2 (stereo unspecified)
160 to 165 °C

Output melting point of CNC(=C[N+](=O)[O-])NCCCCc1ccc(CN(C)C)s1
104 to 106 °C

Output melting point of CC(C)(C)OC(=O)N1c2ncc(Br)cc2C=CC1N (stereo unspecified)
> 230 °C

Output melting point of Cc1ccc(S(=O)(=O)O[C@H](C)C(=O)N2C(=O)N(C)C[C@H]2C(=O)OCc2ccccc2)cc1
153 to 155 °C

Output melting point of O=C(c1ccccc1Cl)c1cc(Cl)cc(Br)c1I
86 to 87 °C

Output melting point of Cn1c(CCl)cnc1[N+](=O)[O-]
100 to 101 °C

====

# Lookup of reported melting point keyed by entry

Example entries begin here.
>>> df
                                   compound        measure  observed_result
0        CCOC(=O)c1cnc2c(cnn2-c2ccccc2)c1Cl  melting point      89 to 91 °C
1  CN(C)/C=c1\c2ccccc2c2[nH]c(=O)c3nccn3c12  melting point           293 °C
2  Cc1cccc2c1N(CC(=O)N1CC3CCC(CC3)C1)C(=O)C(NC(=O)Nc1cccc(C(=O)OC(C)(C)C)c1)N=C2c1ccccc1F (stereo not given)  melting point    230 to 232 °C
3       O=C(Nc1cc(Cl)ccc1O)c1cc(Cl)cc(Cl)c1  melting point    251 to 252 °C
4                COc1ccc(CC(=O)c2ccccc2)cc1  melting point      87 to 92 °C
5  CSc1ccc(CNC(=O)c2sc(NC(C)=O)nc2CCc2ccc(NC(=O)OC(C)(C)C)cc2)cc1  melting point    182 to 183 °C
6     N#Cc1c(N2CCCN(c3ccccc3)CC2)cc[nH]c1=S  melting point    128 to 132 °C
7  Fc1ccccc1CC1CCN(C2CC=C(c3ccc4c(c3)OCO4)CC2)CC1 (stereo not given)  melting point    118 to 119 °C
8  CCOC(=O)N1CCc2c([nH]c3ccc(Cl)cc23)C1C1(C(N)=O)CCC1 (stereo not given)  melting point    200 to 220 °C
9      Nc1ccc(CCN2CCN(c3nsc4ccccc34)CC2)cc1  melting point           154 °C

Output melting point of O=C(C=P(c1ccccc1)(c1ccccc1)c1ccccc1)CCCc1ccccc1
93 to 95 °C

Output melting point of CCCN(CCC)c1nc(C#N)c(C#N)nc1CC
58 to 60 °C

Output melting point of CCCn1c(=O)c([N+](=O)[O-])c2n(c1=O)CCS2
189 to 191 °C

Output melting point of CC(C)[C@H](NC(=O)[C@H](Cc1ccccc1)NC(=O)OCc1ccccc1)[C@@H](O)c1c(-c2ccccc2)c1=O
175 to 177 °C

Output melting point of Oc1nc(Cc2ccccc2)nc(O)c1-c1ccccc1
337 °C

Output melting point of CCOC(=O)c1coc(=O)cc1S(C)(=O)=O
95 to 97 °C

Output melting point of CCCCCCCCOc1ncc(-c2ccc(OC(=O)[C@H]3CCCO3)cc2)cn1
75 °C

Output melting point of COc1cc(F)c(C(O)CNCc2csc(NC(C)=O)n2)cc1OC (stereo not given)
173 to 175 °C

Output melting point of COc1ccc(NC(=O)c2sccc2S(=O)(=O)Nc2onc(C)c2Br)cc1
202 to 205 °C

Output melting point of O=C(c1ccccc1)c1c(Cl)cc(CBr)cc1Cl
111 to 113 °C

====

# Lookup of reported melting point keyed by entry

Example entries begin here.
In [3]: df
Out[3]:
                                   compound  observed_result
0  CCNC(=O)n1nc(Oc2cc(OCC)ccc2[N+](=O)[O-])cc1C      73 to 75 °C
1                      COc1c(Cl)cc(Br)cc1Cl      67 to 68 °C
2  O=C(NCc1ccc(Cl)cc1)c1cn(CCN2CCCCC2)c2ccc(C#CCO)cc2c1=O    176 to 180 °C
3                       Cc1cc(=O)c2ccccc2o1            71 °C
4  N#CC1CN(C(=O)[C@H](NC(=O)c2c[nH]c3ncc(-c4ccc(N5CCOCC5)cc4)nc23)C2CC2)C1    186 to 192 °C
5  O=[N+]([O-])c1c(O)c(O)cc2cc(N=Nc3ccccc3)ccc12    238 to 244 °C
6  CSc1sc(C(=O)N2CCN(C)CC2)c2c1C(=O)CC(C)(C)C2    123 to 125 °C
7  O=C1CCNC(=O)C1C(=O)c1ccc(C(F)(F)F)cc1 (stereo unspecified)    197 to 200 °C
8                     CC(=O)c1ccc(N)c(Br)c1      59 to 62 °C
9   O=C(N[C@H]1C=C[C@@H](C(=O)O)C1)c1ccccc1    150 to 151 °C

Output melting point of Cc1nc(-c2ccc(CCN3CCN(c4nsc5ccccc45)CC3)cc2)cs1
135 to 140 °C

Ref: a melting point compilation (Tetko et al.; mined from patent text by program, amines drawn as free bases though some values may be those of a salt)
